tested on: HIV-1 IIIB (cell-free virus); experiment: microbe, parasite or virus in culture; format: cell-based; conditions: Human immunodeficiency virus 1, IIIB; Table 1; 2 h incubation, wash, 48 h culture; read-out: IC50 Cell-Free Virus IIIB
ENDPOINT NAME: IC50

| COMPOUND | ENDPOINT NAME | MEAS VALUE |
| --- | --- | --- |
| Nc1nc(=O)n([C@H]2CS[C@@H](CO)O2)cc1F [2′,3′-dideoxy-5-fluoro-3′-thiacytidine, reference compound] | IC50 | 0.48 µg/mL |
| Cc1cn([C@H]2C[C@H](N=[N+]=[N-])[C@@H](CO)O2)c(=O)[nH]c1=O [3′-azido-2′,3′-dideoxythymidine (AZT), 3′-azido-2′,3′-dideoxythymidine, reference compound] | IC50 | 9.2 µg/mL |
| [N-]=[N+]=NCCCCCCCCCCCC(=O)OC[C@H]1O[C@@H](n2ccc(N)nc2=O)CS1 | IC50 | 0.88 µg/mL |
| [N-]=[N+]=NCCCCCCCCCCCC(=O)OC[C@H]1O[C@@H](n2cc(F)c(N)nc2=O)CS1 | IC50 | 0.39 µg/mL |
| CCCCCCCCCCCCCC(=O)Nc1ccn([C@H]2CS[C@@H](CO)O2)c(=O)n1 | IC50 | 4.8 µg/mL |
| CCCCCCCCCCCCCC(=O)Nc1ccn([C@H]2CS[C@@H](COC(=O)CCCCCCCCCCCCC)O2)c(=O)n1 | IC50 | > 100 µg/mL |
| CCSCCCCCCCCCCCC(=O)OC[C@H]1O[C@@H](n2ccc(N)nc2=O)CS1 | IC50 | 1.1 µg/mL |
